Consider the following molecules and their measured MIC readings.
tested on: Acinetobacter baumannii ATCC 15473; experiment: MIC by standard broth microdilution (CLSI), Acinetobacter baumannii; assay type: cell-based; details: ATCC15473, AB ATCC 15473, cation-adjusted Mueller Hinton broth (CAMHB), read-out: MIC in CAMHB medium

molecule	MIC
CC(C)(O/N=C(\C(=O)N[C@@H]1C(=O)N2C(C(=O)O)=C(C=NOCc3cc(=O)c(O)cn3O)CS[C@H]12)c1nsc(N)n1)C(=O)O	1 µg/mL
CC(C)(O/N=C(\C(=O)N[C@@H]1C(=O)N2C(C(=O)[O-])=C(C[n+]3ccccc3)CS[C@H]12)c1csc(N)n1)C(=O)O [Ceftazidime, reference compound]	4 µg/mL

The record that follows has no MIC shown yet.
I am curious: what MIC value has been reported for CC(C)(O/N=C(\C(=O)NC1C(=O)N2C(C(=O)O)=C(C=NO[C@H]3CCN(C(=O)c4ccc(O)c(O)c4Cl)C3)CSC12)c1csc(N)n1)C(=O)O (stereo partly drawn) ? 0.5 µg/mL

* * *

Consider the following molecules and their measured MIC readings.
test system: Klebsiella pneumoniae ATCC 43816; assay: MIC by standard broth microdilution (CLSI), Klebsiella pneumoniae; assay type: cell-based; conditions: ATCC43816, KP ATCC 43816, cation-adjusted Mueller Hinton broth (CAMHB), read-out: MIC in CAMHB medium

Examples with their reported MIC follow.
molecule	MIC
CC(C)(O/N=C(\C(=O)N[C@@H]1C(=O)N2C(C(=O)[O-])=C(C[N+]3(CCNC(=O)c4ccc(O)c(O)c4Cl)CCCC3)CS[C@H]12)c1csc(N)n1)C(=O)O [Cefiderocol, cefiderocol, reference compound]	2 µg/mL
Nc1nc(/C(=N/OCF)C(=O)N[C@@H]2C(=O)N3C(C(=O)O)=C(C=NOCc4cc(=O)c(O)cn4O)CS[C@H]23)ns1	≤ 0.03 µg/mL
CC(C)(O/N=C(\C(=O)NC1C(=O)N2C(C(=O)O)=C(C=NO[C@H]3C[C@H](NC(=O)c4ccc(O)c(O)c4Cl)C3)CSC12)c1csc(N)n1)C(=O)O (relative stereo)	0.12 µg/mL

Hi! What's the reported MIC for CC(C)(O/N=C(\C(=O)N[C@@H]1C(=O)N2C(C(=O)[O-])=C(C[n+]3ccccc3)CS[C@H]12)c1csc(N)n1)C(=O)O [Ceftazidime, reference compound] on Klebsiella pneumoniae ATCC 43816? 0.12 µg/mL

Repeat for the following molecule: CC(C)(O/N=C(\C(=O)N[C@@H]1C(=O)N2C(C(=O)O)=C(C=NOCc3cc(=O)c(O)cn3O)CS[C@H]12)c1csc(N)n1)C(=O)O ≤ 0.03 µg/mL

* * *

test system: Acinetobacter baumannii ATCC 15473; assay: MIC by standard broth microdilution (CLSI), Acinetobacter baumannii; assay type: cell-based; conditions: ATCC15473, AB ATCC 15473, cation-adjusted Mueller Hinton broth (CAMHB), read-out: MIC in CAMHB medium
property: MIC (µg/mL)
Return type: number; implicit unit µg/mL.

compound	test-system	property	observed
Nc1nc(/C(=N/OCF)C(=O)NC2C(=O)N3C(C(=O)O)=C(C=NOCCNC(=O)c4ccc(O)c(O)c4Cl)CSC23)ns1 (centres unmarked) [Example 6]	Acinetobacter baumannii ATCC 15473	MIC	4
CC(C)(O/N=C(\C(=O)NC1C(=O)N2C(C(=O)O)=C(C=NO[C@H]3C[C@H](NC(=O)c4ccc(O)c(O)c4Cl)C3)CSC12)c1csc(N)n1)C(=O)O (relative stereo) [Example 7]	Acinetobacter baumannii ATCC 15473	MIC	2
Cn1c(N)c(NC(=O)NCCN)c[n+]1CC1=C(C(=O)O)N2C(=O)[C@@H](NC(=O)/C(=N\OC(C)(C)C(=O)[O-])c3nsc(N)n3)[C@H]2SC1 [Ceftolozane, reference compound]	Acinetobacter baumannii ATCC 15473	MIC	2
CC(C)(O/N=C(\C(=O)N[C@@H]1C(=O)N2C(C(=O)O)=C(C=NOCc3cc(=O)c(O)cn3O)CS[C@H]12)c1csc(N)n1)C(=O)O [Example 1]	Acinetobacter baumannii ATCC 15473	MIC	2

I am curious: what MIC value has been reported for CC(C)(O/N=C(\C(=O)NC1C(=O)N2C(C(=O)O)=C(C=NOCCNC(=O)c3ccc(O)c(O)c3Cl)CSC12)c1csc(N)n1)C(=O)O (centres unmarked) [Example 4] ? 4
